B1: tRNA (parent)
chain: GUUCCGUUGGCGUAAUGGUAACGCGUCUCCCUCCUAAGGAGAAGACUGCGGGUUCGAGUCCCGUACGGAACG

- Variants of: B1
- TEST METHOD NOTES: yeast fitness, log relative to wild type (ln ratio); higher = fitter; tRNA-Arg(CCU), competitive growth, 37 C, 1 M NaCl
EXPERIMENTAL READOUT: yeast fitness (ln)
Response field accepts a number only; no unit should be typed.

Example entries begin here.
>  <CONSTRUCT SEQUENCE>
GUUCCUUUGGCGUAAUGGUAACGCGUCUCCCUCCUAAGGAGAAGACUGCGGGUUCGAGUCCCGUACGGGUCG

>  <yeast fitness (ln)>
-0.145

$$$$
>  <CONSTRUCT SEQUENCE>
GGUCCAUUGGCGUAAUGGUAACGCGUUUCCCUCCUAAGGAGAAGAUUGCGGGUUCGAGUCCCGUAUGGAUUG

>  <yeast fitness (ln)>
-0.158

$$$$
>  <CONSTRUCT SEQUENCE>
ACUCCGUUGGCGUAAUGGUAACGCGUUUCCCUCCUAAGGAGAAGACUGCGGGUUCGAGUCCCGUACGGAUCG

>  <yeast fitness (ln)>
-0.0826

$$$$

Task: Requested field: yeast fitness (ln). Item: "GCUCCGUUGGCGUAAUGGUAACGCGUUUCCCUCCUAAGGAGAAGACUGCGGGUUCGAGUCCCGUAAGGAUCG"
Result: -0.0861

Task: Give its yeast fitness (ln) value. Item: "AGUCCGUUGGCGUAAUGGUAACGCGUCUCCCUCCUAAGGAGAAGAUUGCGGGUUCGAGUCCCGUAUGGGGUG"
Result: -0.195

Task: What value of measured yeast fitness (ln) is listed for "AGUCCGUUGGCGUAAUGGUAACGCGUCUCCCUCCUAAGGAGACGACUGCGGGUUCGAGUCCCGUACGGAAUG" ?
Result: -0.129

Task: yeast fitness (ln) for "GUUCCUUUGGCGUAAUGGUAACGCGUUUCCCUCCUAAGGAGAAGAUUGCGGGUUCGAGUCCCGUAUGGAUCG" ?
Result: -0.19

Task: Recorded yeast fitness (ln) for "GCUCCGUUGGCGUAAUGGUAACGCGUCUCCCUCCUAAGGAGACGACUGCGGGUUCGAGUCCCGUAAGGGUUG" , please?
Result: -0.368

Task: Any idea what its yeast fitness (ln) is? The variant is "GGUCCGUUGGCGUAAUGGUAACGCGUCUCCCUCCUAAGGAGACGACUGCGGGUUCGAGUCCCGUAAGGGGCG"
Result: -0.162

Task: Consider the variant "AGUCCUUUGGCGUAAUGGUAACGCGUUUCCCUCCUAAGGAGACGAUUGCGGGUUCGAGUCCCGUAUGGGUCG" and give its measured yeast fitness (ln).
Result: -0.451

Task: # input variant: "GGUCCGUUGGCGUAAUGGUAACGCGUUUCCCUCCUAAGGAGAAGAUUGCGGGUUCGAGUCCCGUAUGGGAUG" ; wanted: its yeast fitness (ln)
Result: -0.312
